measuredOn: AMP-activated protein kinase, AMPK (Homo sapiens) (UniProt P54646+O43741+P54619+Q9UGJ0+Q9Y478+Q13131+Q9UGI9)
assayInfo: AMP-dependent Kinase enzyme assay. An in vitro enzyme assay that detects ADP turnover that is directly proportional to AMPK activity. This uses naive AMPK that is activated during the assay with MK-8722
Assay type: functional
Parameters: scale not given: direction of the effect not stated beside the values
conditionLabel: 30 µM
Exercise: for every item that follows, state its recorded Percent Effect.
Provide only the numeric value, understood in %.

Which Percent Effect value belongs to `O=c1ccc(-c2cccs2)nn1CN1CCN(Cc2ccccc2)CC1` ?
2.74

Which Percent Effect value belongs to `CCn1ccnc1CN1C[C@@H](CN2CCCC2)[C@@H](CO)C1` ?
-3.35

Which Percent Effect value belongs to CC(C)n1c(C2CCCN(Cc3ccnn3C)C2)nc2ccccc21 (stereo not drawn) ?
6.84

Which Percent Effect value belongs to `CC(C)N(CC(N)=O)Cc1csc(COc2ccc(F)cc2)n1` ?
-6.77

Which Percent Effect value belongs to CC(C)n1cnc2c1C(C(=O)NCCC#N)N(Cc1ccccc1)CC2 (stereo not drawn) ?
-5.79

Which Percent Effect value belongs to `COc1cc2ncn(CC(=O)NCCCN(C)C)c(=O)c2cc1OC` ?
-1.58

Which Percent Effect value belongs to CN1CC(=O)N(c2cccc(F)c2)CC12CCN(Cc1cccnc1)C2 (stereo not drawn) ?
4.97

Which Percent Effect value belongs to `c1cnc(N2C[C@H]3CCN(c4cccnc4)C[C@H]3C2)nc1` ?
-3.42

Origin of measurements: ChEMBL document CHEMBL3988442
